# target: GLP-1 receptor (GLP-1R) (human, UniProt P43220 24-463)
# measurement_description: cell-based or functional assay
Starred links: 1 amine or outer side, 2 acyl side, 3 side chain; linkers in the order of their positions; H or OH if unused. Non-standard residues stand in square brackets, D forms with d. Groups on a side chain read outwards from the residue. Primed or numbered codes have the meaning given here. No end group written: not given here. *: point of attachment. γGlu = O=C(O)[C@H](CCC(=O)[*:2])N[*:1]; Stearoyl = CCCCCCCCCCCCCCCCCC(=O)*; αMeF = C[C@](N)(Cc1ccccc1)C(=O)O; αMeK = C[C@](N)(CCCCN)C(=O)O; αMeS = C[C@](N)(CO)C(=O)O; PEG2′ = not defined here; Aib = CC(C)(N)C(=O)O
property_measured: cAMP Primary assay EC50 GLP-1R n2 (nM)
Lab book: enter the figure in nM, no units written.

Worked examples, 6 binders total:
H[Aib]EGS[αMeF]TSDV[αMeS]S[αMeF]LEGEAK([PEG2′-PEG2′-γGlu-Stearoyl])[αMeK]E[αMeF]IA[αMeF]VV[αMeK]GG-NH2 [SEQ ID NO 110]	0.0639
H[Aib]EGS[αMeF]K([PEG2′-PEG2′-γGlu-Stearoyl])SDV[αMeS]S[αMeF]LEGEAA[αMeK]E[αMeF]IA[αMeF]VV[αMeK]GG-NH2 [SEQ ID NO 122]	25.2
H[Aib]EGS[αMeF]TSDVK([PEG2′-PEG2′-γGlu-Stearoyl])S[αMeF]LEGEAA[αMeK]E[αMeF]IA[αMeF]VV[αMeK]GG-NH2 [SEQ ID NO 118]	0.758
H[Aib]EGS[αMeF]TSDV[αMeS]S[αMeF]LEGEAA[αMeK]E[αMeF]IAK([PEG2′-PEG2′-γGlu-Stearoyl])VV[αMeK]GG-NH2 [SEQ ID NO 104]	0.00511
H[Aib]EGS[αMeF]TSDV[αMeS]S[αMeF]K([PEG2′-PEG2′-γGlu-Stearoyl])EGEAA[αMeK]E[αMeF]IA[αMeF]VV[αMeK]GG-NH2 [SEQ ID NO 115]	0.00539
H[Aib]EGS[αMeF]TSDV[αMeS]S[αMeF]LEGEAA[αMeK]E[αMeF]IA[αMeF]K([PEG2′-PEG2′-γGlu-Stearoyl])V[αMeK]GG-NH2 [SEQ ID NO 103]	0.00456

Data request: What does the record list as cAMP Primary assay EC50 GLP-1R n2 for H[Aib]EGS[αMeF]TSDV[αMeS]S[αMeF]LEGEK([PEG2′-PEG2′-γGlu-Stearoyl])A[αMeK]E[αMeF]IA[αMeF]VV[αMeK]GG-NH2 [SEQ ID NO 111] ?
Data returned: 0.0164

Data request: Another: H[Aib]EGS[αMeF]TSDV[αMeS]SK([PEG2′-PEG2′-γGlu-Stearoyl])LEGEAA[αMeK]E[αMeF]IA[αMeF]VV[αMeK]GG-NH2 [SEQ ID NO 116]
Data returned: 0.00912

Data request: Another: H[Aib]EGS[αMeF]TSDV[αMeS]S[αMeF]LEGEAA[αMeK]E[αMeF]IA[αMeF]VVK([PEG2′-PEG2′-γGlu-Stearoyl])GG-NH2 [SEQ ID NO 101]
Data returned: 0.0512
